The origin of these recorded values is PubChem BioAssay AID1347076.

- protocol: qHTS assay for MDR1-selective chemotherapeutics: Primary screen using the drug-selected MDR subline cells KB-V1; also: nearly all actives have a fitted effect of over 60% in size
- assay-setup: KB-V1 MDR cells viability, CellTiter-Glo, 72 h; series mostly up to 46.1 µM
Hit rate of the full screen: of about 400,000 compounds, about 13,000 (3.2%) were called active. Roughly 18% stayed inconclusive and do not appear here. Calls follow the shape of the dose curve; as a rule, active = well fitted cell-killing curve with a large enough effect; inconclusive = small, poorly fitted or top-dose-only effect, or effect the other way; inactive = flat fitted curve, though single readings scatter. The entries come from a sample that favours actives as a whole.
Pick one: active, inactive

Query: What was the test verdict on "COc1ccccc1OCCCCCCN1CCN(C)CC1" ?
Response: inactive

Query: What was the test verdict on "COC(=O)c1ccccc1NC(=O)Cn1c(=O)cc(C)c2c(C)nn(-c3cccc(Cl)c3C)c21" ?
Response: inactive

Query: What was the test verdict on "COC(=O)c1c(C)[nH]c(C(=O)NCCc2ccc(S(N)(=O)=O)cc2)c1C" ?
Response: inactive

Query: What was the test verdict on Cc1ccc(NC(=O)Cn2cccc2C2=NC(c3ccccc3)CO2)c(C)c1 (stereo not given) ?
Response: active

Query: What was the test verdict on "CCc1nc2c(OCCOc3ccc(F)cc3)cccn2c1N(C)C(=O)c1ccccc1F" ?
Response: inactive

Query: What was the test verdict on COc1ccc(C2C(=O)N(C3CCCCC3)CC(=O)N2Cc2ccccc2Cl)cc1OC (stereo not given) ?
Response: inactive

Query: What was the test verdict on COCCCNC(NC(=O)c1ccc(C)cc1)C(Cl)(Cl)Cl (stereo not given) ?
Response: active

Query: What was the test verdict on "C[C@H]1CN([C@@H](C)CO)C(=O)c2cc(C3=CCCCC3)cnc2O[C@@H]1CN(C)C(=O)Cc1ccccc1" ?
Response: inactive

Query: What was the test verdict on "Cc1ccc(NC(=O)CNCc2ccccn2)cc1S(=O)(=O)N(C)C" ?
Response: inactive

Query: What was the test verdict on CCCCn1nnnc1C1(C)CCC(=O)N1Cc1ccc(OC)c(OC)c1 (stereo not given) ?
Response: inactive

Query: What was the test verdict on C=CCOc1cccc(C2C(C(=O)c3ccc(C)o3)=C(O)C(=O)N2CCN2CCOCC2)c1 (stereo not given) ?
Response: inactive

Query: What was the test verdict on "C[C@@H]1CN([C@H](C)CO)S(=O)(=O)c2ccc(C#CC3CCCCC3)cc2O[C@H]1CN(C)C(=O)Cc1ccncc1" ?
Response: inactive

Query: What was the test verdict on "COc1ccc(COC[C@H](CC(C)C)N2CCN(C(=O)c3cccc(C(F)(F)F)c3)CCC2=O)cc1" ?
Response: inactive

Query: What was the test verdict on "COc1ccccc1CNC(=O)NCc1noc2ccc(C)cc12" ?
Response: inactive

Query: What was the test verdict on "C[C@H](CO)N1C[C@H](C)[C@H](CN(C)C(=O)c2ccncc2)OCc2ccccc2-c2c(n(C)c3ccccc23)C1=O" ?
Response: inactive

Query: What was the test verdict on Cc1noc(C)c1C(=O)N1CCC1(C)C(=O)NS(=O)(=O)c1ccc(C#N)cc1 (stereo not given) ?
Response: inactive

Query: What was the test verdict on CC(C)CC(COCc1ccc(Cl)cc1)N1CCN(C(=O)c2ccc(C(F)(F)F)cc2)CCC1=O (stereo not given) ?
Response: active

Query: What was the test verdict on "O=C(/C=C/[C@H]1O[C@@H](n2cnc3c(NC(=O)c4ccccc4)ncnc32)[C@H](O)[C@@H]1O)NCc1ccccc1" ?
Response: inactive

Query: What was the test verdict on "CN(Cc1cnccn1)C(=O)c1cc(COc2cccc(C(F)(F)F)c2)on1" ?
Response: inactive

Query: What was the test verdict on CC1CCCN(CC(O)COCc2ccccc2)C1 (stereo not given) ?
Response: inactive

Query: What was the test verdict on "CC(C)c1ccc(NC(=O)c2ccc(Cn3nc(N4CCN(c5ccccc5)CC4)ccc3=O)o2)cc1" ?
Response: inactive

Query: What was the test verdict on CC1CCCN(CCOCCOc2ccccc2-c2ccccc2)C1 (stereo not given) ?
Response: active

Query: What was the test verdict on "CCN(CCCNC(=O)c1cc(Nc2ccc(OC)cc2)nc2ccccc12)c1cccc(C)c1" ?
Response: inactive

Query: What was the test verdict on "c1ccc(-c2nc(NCc3ccco3)c3ccccc3n2)cc1" ?
Response: active

Query: What was the test verdict on "O=C(Nn1cnc2ccccc2c1=O)c1ccccc1" ?
Response: inactive

Query: What was the test verdict on "Cc1ccc(C(=O)Nc2ncccc2C)cc1S(=O)(=O)N1CCOCC1" ?
Response: inactive

Query: What was the test verdict on CCOC(=O)C1=C(C)Nc2nc3ccccc3n2C1c1cccs1 (stereo not given) ?
Response: active

Query: What was the test verdict on "NC(=O)C1CCN(c2ncc(-c3ccc(Cl)cc3)s2)CC1" ?
Response: inactive

Query: What was the test verdict on "CCOc1ccc(CCN2C(=S)N([C@@H](CC(C)C)CN3CCC[C@@H]3CN3C(=S)NC[C@@H]3Cc3ccc(O)cc3)C[C@@H]2Cc2ccc(O)cc2)cc1" ?
Response: inactive

Query: What was the test verdict on "Cc1cccc(C(=O)Nc2ccc(-c3nc4ccccc4s3)c(C)c2)c1" ?
Response: inactive

Query: What was the test verdict on COc1ccccc1NC(=O)C1=C(C)Nc2ncnn2C1c1sccc1C (stereo not given) ?
Response: inactive

Query: What was the test verdict on CCCCc1ccc(S(=O)(=O)NC(=O)C2(C)CCN2C(=O)c2ccccc2)cc1 (stereo not given) ?
Response: inactive

Query: What was the test verdict on "C[C@H](NC(=O)[C@@H]1CCCN1C(=O)[C@@H]1CCCN1C(=O)c1ccccc1)c1ccccc1" ?
Response: inactive

Query: What was the test verdict on "N#Cc1cccc(Nc2c3c(nc4ccccc24)CCCC3)c1" ?
Response: inactive

Query: What was the test verdict on "CN(NC(=O)c1ccccc1F)c1nc(C(F)(F)F)nc2ccccc12" ?
Response: inactive

Query: What was the test verdict on CC1=C(C(=O)Nc2ccccc2Cl)C(c2cccs2)n2ncnc2N1 (stereo not given) ?
Response: inactive

Query: What was the test verdict on COC(=O)c1ccc(C2C(C(=O)Nc3ccccc3)=C(C)Nc3nc4ccccc4n32)cc1 (stereo not given) ?
Response: inactive

Query: What was the test verdict on "COC(=O)c1c(C)[nH]c(C(=O)/C=C/c2ccc(Cl)cc2)c1C" ?
Response: active

Query: What was the test verdict on "COc1ccc2oc(-c3ccc(C)c(NC(=O)c4sc5ccccc5c4Cl)c3)nc2c1" ?
Response: inactive

Query: What was the test verdict on "O=C(CNC(=O)N1CC(=O)Nc2ccccc21)Nc1ccc(Br)cc1F" ?
Response: inactive

---

- protocol: qHTS assay for MDR1-selective chemotherapeutics: Primary screen using the drug-selected MDR subline cells KB-V1; also: nearly all actives have a fitted effect of over 60% in size
- assay-setup: KB-V1 MDR cells viability, CellTiter-Glo, 72 h; series mostly up to 46.1 µM
Among all 400,000 compounds or so, about 13,000 (3.2%) were called active. Another 18% or so got no clear call; they are omitted. Calls come from the whole dose curve; as a rule, active = well fitted cell-killing curve with a large enough effect; inconclusive = small, poorly fitted or top-dose-only effect, or effect the other way; inactive = flat fitted curve, though single readings scatter. Only a selection was taken, and actives are over-represented in it overall.
Pick one: active, inactive

Query: What was the test verdict on "Cc1c(C(=O)Nc2ccccc2)sc2nc3n(c(=O)c12)CCCCC3" ?
Response: inactive

Query: What was the test verdict on "CC(=O)c1ccc(NC(=O)c2sc3nc4n(c(=O)c3c2C)CCCCC4)cc1" ?
Response: active

Query: What was the test verdict on "COc1ccc2c(c1)CCc1c(C(=O)N3CCCC3)noc1-2" ?
Response: inactive

Query: What was the test verdict on CCCCn1nnnc1C(c1cc2ccccc2o1)N(C)Cc1ccc(Cl)c(Cl)c1 (stereo unspecified) ?
Response: inactive

Query: What was the test verdict on "Cc1ccc(NC(=O)C2(N3CCC3=O)CCCCC2)cc1" ?
Response: inactive

Query: What was the test verdict on "COc1ccc2c(c1)CCc1cn3ncc(C#N)c3nc1-2" ?
Response: active

Query: What was the test verdict on "Cc1ccc(C(=O)Nc2ccc(OCc3cc(=O)n4c5c(sc4n3)CCCC5)cc2)cc1" ?
Response: inactive

Query: What was the test verdict on "O=c1c2c(nc3n1CCCCC3)sc1c(O)cccc12" ?
Response: inactive

Query: What was the test verdict on CCCCN1C(=O)C(CC(=O)NCc2cccs2)CC(C(=O)N2CCOCC2)=C1C (stereo unspecified) ?
Response: inactive

Query: What was the test verdict on CC1CC(NC(=S)N(C)C)CC(C)(C)C1 (stereo unspecified) ?
Response: inactive

Query: What was the test verdict on "CC(=O)c1ccc(NC(=O)c2nc(-c3ccc(C)cc3)n3c2CCCCC3)cc1" ?
Response: active

---

- protocol: qHTS assay for MDR1-selective chemotherapeutics: Primary screen using the drug-selected MDR subline cells KB-V1; also: nearly all actives have a fitted effect of over 60% in size
- assay-setup: KB-V1 MDR cells viability, CellTiter-Glo, 72 h; series mostly up to 46.1 µM
Among all 400,000 compounds or so, about 13,000 (3.2%) were called active. About 18% were inconclusive and are not listed. Calls follow the shape of the dose curve; as a rule, active = well fitted cell-killing curve with a large enough effect; inconclusive = small, poorly fitted or top-dose-only effect, or effect the other way; inactive = flat fitted curve, though single readings scatter. This excerpt belongs to a sample that is enriched for actives.
Pick one: active, inactive

Query: What was the test verdict on "COc1ccccc1CNC(=O)c1ccc(N(C)S(=O)(=O)c2ccc(C)cc2)cc1" ?
Response: inactive

Query: What was the test verdict on O=C(NCc1ccc(F)cc1)c1cc(C2CCCCN2C(=O)C2CCCCC2)on1 (stereo not given) ?
Response: inactive

Query: What was the test verdict on "CCc1ccccc1NC(=O)N1CCN(C(=O)c2nsc3ccccc23)CC1" ?
Response: inactive

Query: What was the test verdict on "Cc1ccccc1CSCCNC(=O)c1ccc(N(C)S(=O)(=O)c2ccccc2)cc1" ?
Response: active

Query: What was the test verdict on "Cc1ccc(C(=O)Nc2c(-c3ccccc3)[nH][nH]c2=O)cc1" ?
Response: inactive
